Data provenance: ChEMBL document CHEMBL2406940

- Tested on: Leishmania amazonensis
- METHOD DESCRIPTION: Antileishmanial activity against promastigotes of Leishmania amazonensis MHOM/BR/75/LTB0016 infected in Swiss mouse peritoneal macrophages assessed as reduction of infection index after 72 hrs
- Format: functional, organism-based
- CONDITION INFO: MHOM/BR/75/LTB0016, 72 h
pIC50: −log10 of the molar value.
REPORTED PROPERTY: pIC50

smiles=O=c1c(O)c(-c2ccc(O)c(O)c2)oc2cc(O)cc(O)c12 reported=5.47
